Recorded inhibition by entry
Method notes: blockers of RIG-like receptor reporter activation – cell-based, Sendai virus stimulus, luciferase, 10K MLSCN set, TLR/RLR signaling modifier project, primary screen (AID 602276);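 also: firefly luciferase from ISG56 promoter only with Renilla not read in this screen; 0% = Sendai virus plus DMSO and 100% = medium plus DMSO without virus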
Condition context: HEK293 RL24 IRF3 luciferase reporter, at 10 µM, stronger effect = higher value
Readout name: inhibition (%)

1. CCn1c(SCC(=O)Nc2cccc(C)c2)nc2c(c1=O)SC(C)C2 (stereo not drawn) : 12.1
2. COc1cccc(NC(=O)NC2(C(F)(F)F)Oc3ccccc3O2)c1 : 12.9
3. COc1ccc(-n2c(Cc3cccn3C)nnc2SCC(=O)Nc2ccccc2)cc1 : 15.3
4. C=CCSc1n[nH]c(-c2ccc(OC)cc2)n1 : -90.7
5. CS(=O)(=O)N(Cc1nc2sc3c(c2c(=O)[nH]1)CCCC3)C1CCCCC1 : 4.56
6. CCn1c2ccccc2c2cc(N)ccc21 : 8.66
7. C/C=C/Cn1c(SCCCc2ccccc2)nc2c1c(=O)[nH]c(=O)n2C : 1.4
8. Cc1ccc(NC(=O)C2CCCN2S(=O)(=O)c2cccc3cccnc23)cc1F (stereo not drawn) : 9.99
9. COc1ccc(NC(=O)Nc2ccc(C)cc2OC(F)F)cc1OC : 1.59
10. CCCC(c1nnnn1Cc1ccc(OC)cc1)N1CCN(c2ccccc2OC)CC1 (stereo not drawn) : 10.6
11. CN=C(Nc1cc(C)nn1-c1ccccc1)c1ccccc1 : 12.8
12. CC(=O)Nc1ccc(S(=O)(=O)N2CCC(c3nc4ccccc4[nH]3)CC2)cc1 : 7.22
13. Cn1c(SCC(=O)Nc2ccc3c(c2)oc2ccccc23)nnc1-c1ccccc1 : -1.19
14. Cc1ccc(S(=O)(=O)N2CCN(S(C)(=O)=O)C2c2ccccc2)cc1 (stereo not drawn) : 8.09
15. COc1cccc(N2CCN(Cc3nc(N)nc(Nc4ccccc4)n3)CC2)c1 : 0.669
16. O=C(COc1ccccc1F)NC1CC1 : -0.955
17. O=C1CC(N2CCN(c3cccc(C(F)(F)F)c3)CC2)C(=O)N1c1ccccc1 (stereo not drawn) : 7.76
18. CN(C1CCCCC1)S(=O)(=O)c1ccc(NC(=O)c2ccco2)cc1 : 4.93

* * *

Recorded inhibition by entry
Method notes: endothelial E-selectin expression blockers – imaging, HUVEC, immunofluorescence, MLSMR starter and 10KST1 sets, primary screen (AID 487);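 also: signal is fraction of cell area covered by stained E-selectin grains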
Condition context: HUVEC TNFalpha-induced E-selectin immunofluorescence imaging, at 2 µM; stronger effect = higher value
Readout name: inhibition (%)

1) COc1cc(Br)cc(/C=N/c2ncn[nH]2)c1O : -35
2) C/C(N)=C(/C#N)C(=O)COC(=O)c1cc(C)n(-c2ccc(F)cc2)c1C : -93.8
3) Cc1cccc2sc(NC(=O)CN(C)S(=O)(=O)c3cccs3)nc12 : -1.7
4) CCN(CCNC(=O)CS(=O)(=O)Cc1nc(-c2cccc(OC)c2)oc1C)c1ccccc1 : -37.8

* * *

Test target: Voltage-gated potassium channel subunit beta-2 (Rattus norvegicus) (UniProt P62483)
Sequence (P62483 whole entry, looked up): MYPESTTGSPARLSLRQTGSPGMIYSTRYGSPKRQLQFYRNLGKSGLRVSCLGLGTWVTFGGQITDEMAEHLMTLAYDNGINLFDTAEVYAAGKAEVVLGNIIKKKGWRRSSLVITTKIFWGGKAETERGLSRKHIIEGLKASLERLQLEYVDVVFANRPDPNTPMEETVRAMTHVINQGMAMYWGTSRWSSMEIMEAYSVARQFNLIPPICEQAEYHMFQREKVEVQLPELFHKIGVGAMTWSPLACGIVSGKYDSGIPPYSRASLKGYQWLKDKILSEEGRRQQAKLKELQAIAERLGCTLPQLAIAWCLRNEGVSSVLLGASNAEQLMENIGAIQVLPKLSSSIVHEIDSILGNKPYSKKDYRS
Method notes: enhancers of rat Kvbeta2 NADPH turnover – biochemical, NADPH fluorescence, primary screen (AID 623);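 also: fluorescence intensity change per second fitted from 20 to 320 s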
Condition context: Recombinant KvBeta, NADPH fluorescence decrease slope, 10 min; at 10 µM; stronger effect = lower value
Readout name: NADPH fluorescence slope

1) CCOC(=O)c1ccc(NC(=O)COc2ccc(-n3cnnn3)cc2)cc1 : -1.2e-05
2) Cc1ccccc1N1C(N)=NC(N)=NC1(C)C : -1.3e-05
3) CCN(CCNC(=O)CS(=O)(=O)Cc1nc(-c2cccc(OC)c2)oc1C)c1ccccc1 : -4e-05
4) CCOC(=O)c1c(C)[nH]c(C)c1C(=O)COc1ccc(NC(=O)c2ccco2)cc1 : 1.7e-05

* * *

Method notes: blockers of RIG-like receptor reporter activation – cell-based, Sendai virus stimulus, luciferase, 10K MLSCN set, TLR/RLR signaling modifier project, primary screen (AID 602276);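 also: firefly luciferase from ISG56 promoter only with Renilla not read in this screen; 0% = Sendai virus plus DMSO and 100% = medium plus DMSO without virus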
Condition context: HEK293 RL24 IRF3 luciferase reporter, at 10 µM, stronger effect = higher value
Recorded inhibition by entry
Readout name: inhibition (%)

1. O=C(C1CCCN(S(=O)(=O)c2cccnc2)C1)N1CCn2c1nc1ccccc12 (centres undefined) : -7.64
2. CC(NCc1ccco1)C(=O)N1CCc2ccccc2C1 (centres undefined) : -8.88
3. COc1ccc(C2CC(c3ccccc3)Nc3nc(NC(=O)c4cccs4)nn32)cc1 (centres undefined) : 18.4
4. CC(C)CNC(=O)c1ccccc1NC(=O)c1ccc(CN2CCOCC2)cc1 : 1.28

* * *

Test target: Voltage-gated potassium channel subunit beta-2 (Rattus norvegicus)
Method notes: inhibitors of rat Kvbeta2 reductase activity – biochemical, NADPH fluorescence, primary screen (AID 622);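 also: slope of raw intensity against log time taken from 70 to 1610 s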
Condition context: recombinant KvBeta, 4-cyanobenzaldehyde reduction, at 10 µM, stronger effect = higher value
Readout name: fluorescence slope

1) O=C(CSc1nnc(-c2ccccc2Br)o1)Nc1cccc2ccccc12 : -0.546
2) Cc1ccc(C(C)n2cc(C(=O)NCCN3CCN(C)CC3)nn2)cc1 (stereo not drawn) : -0.575
3) CCOc1ccccc1N(CC(=O)NC1CCCC1)C(=O)CCCC(=O)Nc1ccccn1 : -0.63

* * *

Recorded inhibition by entry
Method notes: blockers of RIG-like receptor reporter activation – cell-based, Sendai virus stimulus, luciferase, 10K MLSCN set, TLR/RLR signaling modifier project, primary screen (AID 602276);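 also: firefly luciferase from ISG56 promoter only with Renilla not read in this screen; 0% = Sendai virus plus DMSO and 100% = medium plus DMSO without virus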
Condition context: HEK293 RL24 IRF3 luciferase reporter, at 10 µM, stronger effect = higher value
Readout name: inhibition (%)

1. Cn1c(=O)c2c(-c3ccccc3)n(CCCN3CCOCC3)cc2n(C)c1=O : -9.43
2. COc1ccccc1N1C(=O)CC(Sc2nc(C)cc(C)n2)C1=O (centres undefined) : 14.5
3. CN(C(=O)c1ccccc1Cl)c1ccccc1 : 15
4. CCOC(=O)C1=C(C)NC2=C(C(=O)CC(C)(C)C2)C1c1ccc(N(C)C)cc1 (centres undefined) : -2.32
5. CCOC(=O)N1CCC(NC(=O)C2CCN(S(=O)(=O)c3cccc4cccnc34)CC2)CC1 : 12
6. Cc1ccc(OCCC(=O)OCC(=O)C(C)(C)C)cc1 : 12.7
7. N#Cc1c2n(c(=S)n(-c3ccccn3)c1=O)CCCCC2 : -7.7
8. CC1CCCCN1S(=O)(=O)c1ccc(NC(=O)c2cccs2)cc1 (centres undefined) : -0.562
9. Cc1cc(Nc2ccc(N3CCC(C)CC3)cc2)n2ncnc2n1 : -6.44
10. CC1=CC2=C(OC1N(C)C)c1cccc3cccc(c13)C2=O (centres undefined) : 5.12
11. O=C(CNCC1CCCO1)Nc1ccccc1-n1cccc1 (centres undefined) : 2.08
12. COc1ccc(C(=O)CN2C3=NCCCN3c3ccccc32)cc1OC : 10.4
13. CC1CCN(c2c(NCc3ccc(C(=O)N4c5ccccc5CC4C)cc3)c(=O)c2=O)CC1 (centres undefined) : 21.8
14. CCOC(=O)C1CCCN(c2c(Nc3ccc(C)c(C)c3)c(=O)c2=O)C1 (centres undefined) : -6.09

* * *

Method notes: inhibitors of TNFa-induced NFkB p65 translocation, primary screen, imaging, HUVEC, MLSMR starter and 10KST1 sets (AID 438);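 also: compound added about 3h40 before a 20 min TNFalpha stimulation; signal is the nuclear over cytoplasmic p65 intensity ratio per well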
Condition context: HUVEC TNFa-induced p65 nuclear translocation; at 2 µM, stronger effect = higher value, 0% TNFa-plus-vehicle, 100% no-TNFa wells
Readout name: inhibition (%)

1) Cc1cc(Nc2ccc(C(=O)O)cc2)n2nc(C)nc2n1 : 3.9
2) CC(C)C(OC(=O)c1ccco1)C(=O)NCc1ccccc1 (stereo not drawn) : 5
3) Cc1cc(NC(=O)c2ccc3c(c2)C(=O)N(Cc2cccnc2)C3=O)no1 : -6.4
4) COC(=O)c1ccccc1NS(=O)(=O)c1ccc(F)cc1 : 2.4
5) COC(C)(C)c1cc(C(C)(C)C)nc(N)n1 : 12
6) COCCn1c(SCC(=O)N(C(C)C)C(C)C)nnc1-c1cc2ccccc2cc1O : 0
7) CCOC(=O)c1ccc(S(=O)(=O)Nc2cc(C(C)(C)C)no2)cc1 : -10.3
8) COc1cc(C2NC(=O)NC(C)=C2C(=O)OCC2CCCO2)ccc1O (stereo not drawn) : 1.8
9) CCN1CCN(C(=O)C2CCN(C(=O)c3cc4sccc4n3CC)CC2)CC1 : -12.2
10) CN(C)c1ccc(C(=O)Nc2nnc(-c3ccc(Cl)cc3)o2)cc1 : 1.3
11) CCCn1c(=O)c2ccccc2n2c(SCCOc3ccccc3F)nnc12 : -10.2
12) O=C(c1ccco1)N1CCN(C2=NS(=O)(=O)c3ccccc32)CC1 : -18.6
13) CC(Oc1ccc(Cl)cc1Cl)C(=O)Nc1ncccn1 (stereo not drawn) : 2.5
14) CN(c1ccccc1)S(=O)(=O)c1ccc(C(=O)OCC(=O)NCc2ccco2)cc1 : 11.6
15) CC1=C(C(=O)N2CCCCC2)C2(CCC(C)CC2)OC1=O (stereo not drawn) : -1.1
16) Cc1cc(C)n(-c2cc(N3CCOCC3)nc(-c3ccccc3)n2)n1 : -14
17) O=C(O)CCC(=O)c1c[nH]c2ccccc12 : 0.5
18) CCN(CC)S(=O)(=O)c1ccc(F)c(C(=O)NCCC(C)C)c1 : -22
